Value source: patent US20260022089A1

Item-by-item account of CC50 at 24 h
Experiment: Toxicity against mouse cells, alamarBlue assay, 24 hours
Assay type: cell-based
Conditions: murine macrophages, read-out: Macrophage Toxicity CC50
Answer format: numeric, µg/mL implied, no suffix.

### Prompt What CC50 at 24 h value was documented for this compound, CC1=CC(=O)C=C(C2CCCC2)C1=O ?
### Response 4.53

### Prompt Name the reported CC50 at 24 h value associated with the compound CCC(C)(C)C1=CC(=O)C(C)=CC1=O
### Response 4.51

### Prompt Reported CC50 at 24 h for CC1=CC(=O)C(C23CC4CC(CC(C4)C2)C3)=CC1=O : what is it?
### Response 0.78

### Prompt Fill in: CC50 at 24 h of CC1=CC(=O)C(C2CCCCCC2)=CC1=O is ___
### Response 0.92

### Prompt What value of measured CC50 at 24 h is listed for CC1=CC(=O)C=C(C2CCCCCC2)C1=O ?
### Response 8.95

---

System: Leishmania amazonensis promastigotes
Test: Leishmanicidal activity, alamarBlue fluorescence, 72 hours incubation with promastigotes
Format: cell-based
Settings: ratio of macrophage CC50 to L. amazonensis IC50
With a cut-off of 10, any SI (CC50/IC50) strictly below it is called yes; any SI (CC50/IC50) meeting it or above is called no.

Completed entries (count: 4):
compound | targetUnderTest | labelClass
CCC(C)(CC)C1=CC(=O)C(C)=CC1=O [SG-011] | Leishmania amazonensis promastigotes | no
CC1=CC(=O)C=C(C2CCCCCC2)C1=O [SG-014] | Leishmania amazonensis promastigotes | no
CCC(C)(C)C1=CC(=O)C(C)=CC1=O [SG-010] | Leishmania amazonensis promastigotes | no
CC1=CC(=O)C(C2CCCC2)=CC1=O [SG-005] | Leishmania amazonensis promastigotes | yes

### Prompt Item CC1=CC(=O)C=C(C2CCCCC2)C1=O [SG-007] : SI (CC50/IC50) beneath 10, strictly?
### Response yes

### Prompt Is the reported SI (CC50/IC50) for CC1=CC(=O)C(C2CCCCCC2)=CC1=O [SG-013] strictly below 10?
### Response yes

### Prompt Here's an entry: CCCCCCCCCCCCCCCCOP(=O)([O-])OCC[N+](C)(C)C [Miltefosine, miltefosine, reference compound] . Is its SI (CC50/IC50) below 10?
### Response no

### Prompt A record lists CC1=CC(=O)C(C2CCCCC2)=CC1=O [SG-008] . Is its SI (CC50/IC50) below 10?
### Response no

### Prompt Field: below-cutoff. Rule: recorded SI (CC50/IC50) strictly less than 10. Subject: CC1=CC(=O)C=C(C2CCCC2)C1=O [SG-003]
### Response no

---

Test: Toxicity against mouse cells, alamarBlue assay, 24 hours
Format: cell-based
Conditions: murine macrophages, read-out: Macrophage Toxicity CC50
Quick reference: log10(CC50 at 24 h) of the listed items.
# log10 transformed; quantity=CC50 at 24 h; unit=µg/mL

Guide cases for log10(CC50 at 24 h), answers given:
molecule | log10(CC50 at 24 h)
CC1=CC(=O)C(C2CCCC2)=CC1=O | -0.14
CC1=CC(=O)C=C(C2CCCCC2)C1=O | -0.28
CCCCCCCCCCCCCCCCOP(=O)([O-])OCC[N+](C)(C)C [Miltefosine, miltefosine, reference compound] | 1.47

### Prompt Need log10(CC50 at 24 h) of CCC(C)(CC)C1=CC(=O)C(C)=CC1=O , thanks.
### Response 1.09

### Prompt May I ask what log10(CC50 at 24 h) has been recorded for CC1=CC(=O)C(C2CCCCC2)=CC1=O ?
### Response 0.41
